experimental_protocol: protein stability index of a GFP-peptide fusion (GPS, HEK-293T) (PSI 1-6); higher = more stable;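 also: 24-mer peptide tiles fused after GFP, lentivirally expressed, FACS-sorted into six equal bins by GFP/DsRed ratio, decoded by Illumina sequencing, PSI is the read-weighted mean bin number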
condition_description: treatment: DMSO; c terminus: a fixed tail appended

sequence_content: RIHSGEKPYGCVECGKAFSRSSIL [ZNF24]
protein stability index: 2.24

sequence_content: RESWDSAKKLPPVQESQSERLQAA [ELOA2]
protein stability index: 5.12

sequence_content: HGSGSSLVVIQQPSLDSRQRLDYE [SPRY1]
protein stability index: 4.12

sequence_content: DLTSEDQIVLLKSSAIEVIMLRSN [VDR]
protein stability index: 2.28

sequence_content: ERSSFYSCAGGRLFQQSCPTGLVF [CHIT1]
protein stability index: 1.99

sequence_content: WSECSRTCGEGYQFRVVRCWKMLS [ADAMTSL2]
protein stability index: 3.1

sequence_content: SPNSTPAKTIDTSPPVDLFATASA [SNAP91]
protein stability index: 4.8

sequence_content: ADWTQGLPWRFEELLTCSHWPSFF [TEX19]
protein stability index: 2.54

sequence_content: DQVMEFSWSALWNITDETPDNCEM [ZER1]
protein stability index: 4.12

sequence_content: AQEVSPCGPPSLGAVLALVAIFIM [MFSD9]
protein stability index: 2

sequence_content: GLAANGALQRLDLRNNQISHKGAE [LRRC45]
protein stability index: 4.23

sequence_content: VTGLNPKTKYILLMDIVPADDHRY [TBX5]
protein stability index: 2.63

sequence_content: KLSARDHQKLEREARICRLLKHPN [CAMK2D]
protein stability index: 3.38

sequence_content: EAQRASFLQNAVLAYVQASPVRTL [LRRC45]
protein stability index: 2.41

sequence_content: MTTESGSDSESKPDQEAEPQEAAG [EPB41L3]
protein stability index: 5.62

sequence_content: SLGYGFVNYSDPNDADKAINTLNG [ELAVL3]
protein stability index: 3.76

sequence_content: SAGNAPLNEEINIASSDSEVEIVG [C18orf25]
protein stability index: 5.27

sequence_content: TVASMMHRQETVDCLKKFNARRKL [CAMK2D]
protein stability index: 3.17

sequence_content: ERHSDLPPLNPTSWWADLRALARN [SPNS1]
protein stability index: 3.34

sequence_content: NSLEMTPAVRQRVIEEAKTAFLLN [HMOX1]
protein stability index: 3.67

sequence_content: DQLRSGSPPKSPRTTVHDKSAHQT [DNAJC4]
protein stability index: 5.26

sequence_content: YLSPRDFLSGLAFRVFHCTQYVRH [TPH1]
protein stability index: 2.31

sequence_content: VSEDFNKMNFIKTYPAHQNRVSAI [WDFY1]
protein stability index: 2.9

sequence_content: KQIAGGDVTAKNIWLAESVLDILT [INTS3]
protein stability index: 2.2

sequence_content: MGATRCDFTLSKTNMARIREIMEK [CPXM2]
protein stability index: 2.96

sequence_content: DDLRINLWHLAITDRSFNIVDIKP [PPP2R2C]
protein stability index: 2.19

sequence_content: YVRLVCKDVRAPSRPAVGPPQPGC [ZSWIM9]
protein stability index: 2.22

sequence_content: STESDKPTTGRVYESDSSNHCMLS [C18orf25]
protein stability index: 4.88

sequence_content: NHLNPEVKKSCWTEEEDRIICEAH [MYBL2]
protein stability index: 4.72

sequence_content: NGIGAVLDFTHPKARDWFQGHLRR [MYORG]
protein stability index: 2.75

sequence_content: PVLGRRAVGGRLRLVPGGQRPADV [HAGHL]
protein stability index: 3.64

sequence_content: QCDHCERCFYTRKDVRRHLVVHTG [PLAGL1]
protein stability index: 2.91

sequence_content: VPGTQVGQGGKLWDPSVQSCKEGL [ZNF263]
protein stability index: 4.12

These measurements were taken from the supplement of paper PMC10567573.
